Header: Ki / Prothrombin (Homo sapiens) / multiple publications

# example entries with known answers
> print(dat)
                                   compound  reported
1  N=C(N)c1ccc(CNC(=O)[C@H](COCc2ccccc2)NC(=O)[C@@H](CO)NS(=O)(=O)Cc2ccccc2)cc1    480 nM
2  CCc1c(CNc2ccc(C(=N)N)cc2)cnc(C)c1OCc1cccc(C(=N)N)c1     47 nM
3  CC(C)(C)OC(=O)N[C@H](Cc1ccccc1)C(=O)N1CCCC1C(=O)NC(CC1CCC(O)CC1)B1OC2CC3CC(C3(C)C)C2(C)O1 (stereo partly drawn)  < 500 nM
4  CC1(C)[C@@H]2C[C@H]3OB([C@H](CCCNC(=N)N)NC(=O)c4cccc(-c5ccccc5)c4)O[C@@]3(C)[C@H]1C2  < 500 nM
5  CC1(C)C2CC3OB([C@H](CCCCN)NC(=O)Cn4cnc(-c5ccccc5)n4)OC3(C)C1C2 (single isomer, unassigned)  < 500 nM
6  Cc1nc(C2CC2)c(CNc2ccc(C(=N)N)cc2)c(CO)c1OCc1ccc(C(=N)N)cc1     37 nM

State its Ki for this compound: COC(=O)NS(=O)(=O)c1ccccc1-c1ccc(C(=O)N[C@@H](CCCNC(=N)N)B2O[C@@H]3C[C@@H]4C[C@@H](C4(C)C)[C@]3(C)O2)c(C)c1 < 500 nM

State its Ki for this compound: CCCc1nc(Cc2ccccc2)n(CC(=O)N[C@@H](CCCCN)B2O[C@@H]3C[C@@H]4C[C@@H](C4(C)C)[C@]3(C)O2)n1 < 500 nM

###

pKi: −log10 of the molar value.
Header: pKi / Prothrombin (Homo sapiens, UniProt P00734) / multiple publications

# example entries with known answers
> print(dat)
                                   compound                             system.tested  reported
1  NC(=O)c1nn(-c2ccc(OC(F)F)cc2)c2c1CCN(C1CCN(N3CCOCC3=O)CC1)C2=O  Prothrombin (Homo sapiens, UniProt P00734)    ≤ 6.00
2  CN(C)CC[C@@H](C(=O)N1CCOCC1)N1CC[C@H](NS(=O)(=O)CCc2ccc(Cl)s2)C1=O  Prothrombin (Homo sapiens, UniProt P00734)    > 7.00
3  O=C([C@H](Cc1cccnc1)N1CC[C@H](NS(=O)(=O)CCc2ccc(Cl)s2)C1=O)N1CCOCC1  Prothrombin (Homo sapiens, UniProt P00734)    > 8.00
4  CC[C@H](C)[C@@H](C(=O)N1CCOCC1)N1CC[C@H](N(CC(=O)N(C)C)S(=O)(=O)CCc2ccc(Cl)s2)C1=O  Prothrombin (Homo sapiens, UniProt P00734)    > 8.00
5  CC(C)(C)NS(=O)(=O)c1ccccc1-c1ccc(C(=O)N[C@@H](CCCNC(=N)N)B2O[C@@H]3C[C@@H]4C[C@@H](C4(C)C)[C@]3(C)O2)c([N+](=O)[O-])c1  Prothrombin (Homo sapiens, UniProt P00734)    > 6.30

Please tell me the measured pKi for Cc1ccc(NS(=O)(=O)Cc2ccccc2)c(=O)n1CCCNc1ccncn1 ; system: Prothrombin (Homo sapiens, UniProt P00734). ≥ 7.00

Please tell me the measured pKi for NC(=O)c1cccc(-n2nc(C(F)(F)F)c3c2C(=O)N(C2CCN(N4CCOCC4=O)CC2)CC3)c1 ; system: Prothrombin (Homo sapiens, UniProt P00734). ≤ 6.00
